Target: Integrin alpha-4/beta-7 (Homo sapiens, UniProt P13612+P26010)
Sequence (P13612 whole entry): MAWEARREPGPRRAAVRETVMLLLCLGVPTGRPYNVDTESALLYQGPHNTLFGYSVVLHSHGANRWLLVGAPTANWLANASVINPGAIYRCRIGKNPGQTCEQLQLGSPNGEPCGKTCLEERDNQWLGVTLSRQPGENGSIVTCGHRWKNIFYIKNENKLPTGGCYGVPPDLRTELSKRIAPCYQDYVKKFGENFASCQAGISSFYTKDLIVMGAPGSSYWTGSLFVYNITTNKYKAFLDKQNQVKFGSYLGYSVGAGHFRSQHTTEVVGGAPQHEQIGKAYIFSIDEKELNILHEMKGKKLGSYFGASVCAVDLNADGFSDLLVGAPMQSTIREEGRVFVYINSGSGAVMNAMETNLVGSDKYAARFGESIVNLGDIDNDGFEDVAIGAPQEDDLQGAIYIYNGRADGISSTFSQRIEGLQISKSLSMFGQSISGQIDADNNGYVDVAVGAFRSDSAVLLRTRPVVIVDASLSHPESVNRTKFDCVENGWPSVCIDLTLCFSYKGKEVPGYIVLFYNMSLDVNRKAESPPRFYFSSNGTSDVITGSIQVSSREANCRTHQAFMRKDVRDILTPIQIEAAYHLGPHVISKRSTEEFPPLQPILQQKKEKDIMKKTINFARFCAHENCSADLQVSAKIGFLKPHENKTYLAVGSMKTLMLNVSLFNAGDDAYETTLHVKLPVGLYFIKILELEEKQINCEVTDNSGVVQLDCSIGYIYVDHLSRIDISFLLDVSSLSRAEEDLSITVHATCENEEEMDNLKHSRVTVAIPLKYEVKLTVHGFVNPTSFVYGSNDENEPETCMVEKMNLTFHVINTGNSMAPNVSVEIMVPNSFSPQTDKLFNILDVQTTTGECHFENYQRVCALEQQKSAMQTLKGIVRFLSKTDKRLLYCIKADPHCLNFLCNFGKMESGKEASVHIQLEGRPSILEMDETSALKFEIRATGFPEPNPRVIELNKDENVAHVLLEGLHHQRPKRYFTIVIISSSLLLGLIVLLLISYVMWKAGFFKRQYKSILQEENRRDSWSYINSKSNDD
Sequence (P26010 whole entry): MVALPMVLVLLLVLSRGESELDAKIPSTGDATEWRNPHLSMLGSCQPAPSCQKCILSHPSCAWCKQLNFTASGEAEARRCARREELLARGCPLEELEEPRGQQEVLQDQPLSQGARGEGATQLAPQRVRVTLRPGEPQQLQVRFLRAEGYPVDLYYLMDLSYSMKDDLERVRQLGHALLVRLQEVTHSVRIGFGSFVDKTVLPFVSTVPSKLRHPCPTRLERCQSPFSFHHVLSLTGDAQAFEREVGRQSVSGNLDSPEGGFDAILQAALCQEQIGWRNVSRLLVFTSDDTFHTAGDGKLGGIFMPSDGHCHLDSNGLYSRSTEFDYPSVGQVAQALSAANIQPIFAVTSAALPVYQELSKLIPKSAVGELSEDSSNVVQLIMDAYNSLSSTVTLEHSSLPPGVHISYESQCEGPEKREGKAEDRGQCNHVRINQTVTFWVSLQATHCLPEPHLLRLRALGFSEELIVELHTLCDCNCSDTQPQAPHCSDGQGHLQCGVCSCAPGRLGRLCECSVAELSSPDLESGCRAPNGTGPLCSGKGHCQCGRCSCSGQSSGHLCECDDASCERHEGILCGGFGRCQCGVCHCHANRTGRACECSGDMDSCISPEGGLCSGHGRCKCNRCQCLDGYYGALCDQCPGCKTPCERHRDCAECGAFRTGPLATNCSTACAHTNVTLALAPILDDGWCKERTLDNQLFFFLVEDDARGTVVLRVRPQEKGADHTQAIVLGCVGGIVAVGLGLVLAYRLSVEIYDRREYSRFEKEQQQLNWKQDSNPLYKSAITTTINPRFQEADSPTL
Assay: alpha-4 beta-7 Integrin Cell Capture Assay
experimental-readout: EC50 (nM)

P: CC[C@@H](Nc1cc(F)c(C(=O)N[C@@H](Cc2ccc(-c3ncc(C)c(C)n3)c3ncccc23)C(=O)O)c(F)c1)C(F)(F)F
Q: COc1ccnc(-c2ccc(C[C@H](NC(=O)c3c(F)cc(N4CCOC[C@@H]4C(F)(F)F)cc3F)C(=O)O)c3cccnc23)c1C(F)(F)F
Query string: Endpoint returns the identifier whose EC50 is numerically larger, either P or Q . // output: label of the selected item
Result string: P
(P: 11.9 nM, Q: 0.4 nM)

A: N#Cc1ccc(-c2ccc(C[C@H](NC(=O)c3c(F)cc(NC4CCOCC4)cc3F)C(=O)O)c3cccnc23)c(Cl)c1
B: COc1cc(F)c(C(=O)N[C@@H](Cc2ccc(-c3ccc(C#N)cc3Cl)c3ncccc23)C(=O)O)c(F)c1
C: CCOCc1cc(OC)c(-c2ccc(C[C@H](NC(=O)c3c(F)cc(N)cc3F)C(=O)O)c3cccnc23)c(OC)c1
Query string: Sort entries by EC50 from minimum to maximum value. Please reply with the labels ordered as requested. Many thanks.
Result string: C, A, B
(C: 10.9 nM, A: 30.6 nM, B: 96.6 nM)
